target: Mu-type opioid receptor (Homo sapiens, UniProt P35372); test: Binding affinity to human mu opioid receptor
Sequence (P35372 whole entry): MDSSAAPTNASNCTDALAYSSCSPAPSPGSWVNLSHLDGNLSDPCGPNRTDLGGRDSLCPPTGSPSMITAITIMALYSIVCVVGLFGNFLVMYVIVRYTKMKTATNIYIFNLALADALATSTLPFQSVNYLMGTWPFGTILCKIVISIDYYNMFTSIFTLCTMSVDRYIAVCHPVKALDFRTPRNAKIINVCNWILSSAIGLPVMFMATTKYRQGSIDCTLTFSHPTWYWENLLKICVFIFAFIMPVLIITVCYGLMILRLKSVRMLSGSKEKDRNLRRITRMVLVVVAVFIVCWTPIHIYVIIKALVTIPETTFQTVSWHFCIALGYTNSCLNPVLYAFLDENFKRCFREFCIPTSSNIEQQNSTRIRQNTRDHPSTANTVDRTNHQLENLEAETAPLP
READOUT_LABEL: pIC50
Answer as the number alone; pIC50 is minus log10 of concentration in mol/L.

These solved cases illustrate the format of a correct answer.
- COc1cccc([C@@]2(O)CCCC[C@@H]2CN(C)CCNC(=O)c2cc(Cl)c(N)cc2OC)c1: 5.35
- COc1cc(N)c(Cl)cc1C(=O)NCCN(C)CC1CCCCC1(O)c1cccc(O)c1 (racemic): 6.72
- COc1cc(N)c(Cl)cc1C(=O)NCCN(C)C[C@H]1CCCC[C@]1(O)c1cccc(O)c1: 6.47

Note: attention shifts to another entry.
Data point: COc1cc(N)c(Cl)cc1C(=O)NCCN(C)C[C@@H]1CCCC[C@@]1(O)c1cccc(O)c1 ; pIC50 = 5.29
